Each recorded value in this set is attributed to the RNAGym collection of RNA variant scans (doi:10.1021/acssynbio.7b00057).

B1: Pistol ribozyme (parent)
chain: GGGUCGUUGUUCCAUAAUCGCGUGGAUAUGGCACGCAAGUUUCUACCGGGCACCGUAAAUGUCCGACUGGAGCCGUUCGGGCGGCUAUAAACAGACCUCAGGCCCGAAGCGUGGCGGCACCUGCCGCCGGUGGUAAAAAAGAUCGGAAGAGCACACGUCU

variants of: B1; experiment: aptazyme ON/OFF ratio, guanine; higher = stronger switching; co-transcriptional cleavage with and without guanine
Observation Type: aptazyme ON/OFF ratio

INSERT INTO assay_data (change, obs_value) VALUES
  ('U8A G9C U10A U11A', 1.37),
  ('U8G U10G U11G C12G C13G', 1.1),
  ('U7A U10A U11G C12U C13G', 1.45),
  ('G9A U10A U11G', 2.38),
  ('U8C G9A U10G U11A C12G C13U', 1.22),
  ('U7G U10C U11C C12G C13G', 1.08),
  ('U7A U8G G9C U10G U11A C12A', 1.42),
  ('U8G G9U U11C C12A', 1.12),
  ('U8C G9C U10G U11C C12A C13U', 1.13),
  ('U7C U8C G9C U10A U11G', 1.32),
  ('U8G U10A U11G C13U', 1.04);
